measured.on: PI 3-kinase delta (Homo sapiens, UniProt O00329)
Sequence (O00329 whole entry): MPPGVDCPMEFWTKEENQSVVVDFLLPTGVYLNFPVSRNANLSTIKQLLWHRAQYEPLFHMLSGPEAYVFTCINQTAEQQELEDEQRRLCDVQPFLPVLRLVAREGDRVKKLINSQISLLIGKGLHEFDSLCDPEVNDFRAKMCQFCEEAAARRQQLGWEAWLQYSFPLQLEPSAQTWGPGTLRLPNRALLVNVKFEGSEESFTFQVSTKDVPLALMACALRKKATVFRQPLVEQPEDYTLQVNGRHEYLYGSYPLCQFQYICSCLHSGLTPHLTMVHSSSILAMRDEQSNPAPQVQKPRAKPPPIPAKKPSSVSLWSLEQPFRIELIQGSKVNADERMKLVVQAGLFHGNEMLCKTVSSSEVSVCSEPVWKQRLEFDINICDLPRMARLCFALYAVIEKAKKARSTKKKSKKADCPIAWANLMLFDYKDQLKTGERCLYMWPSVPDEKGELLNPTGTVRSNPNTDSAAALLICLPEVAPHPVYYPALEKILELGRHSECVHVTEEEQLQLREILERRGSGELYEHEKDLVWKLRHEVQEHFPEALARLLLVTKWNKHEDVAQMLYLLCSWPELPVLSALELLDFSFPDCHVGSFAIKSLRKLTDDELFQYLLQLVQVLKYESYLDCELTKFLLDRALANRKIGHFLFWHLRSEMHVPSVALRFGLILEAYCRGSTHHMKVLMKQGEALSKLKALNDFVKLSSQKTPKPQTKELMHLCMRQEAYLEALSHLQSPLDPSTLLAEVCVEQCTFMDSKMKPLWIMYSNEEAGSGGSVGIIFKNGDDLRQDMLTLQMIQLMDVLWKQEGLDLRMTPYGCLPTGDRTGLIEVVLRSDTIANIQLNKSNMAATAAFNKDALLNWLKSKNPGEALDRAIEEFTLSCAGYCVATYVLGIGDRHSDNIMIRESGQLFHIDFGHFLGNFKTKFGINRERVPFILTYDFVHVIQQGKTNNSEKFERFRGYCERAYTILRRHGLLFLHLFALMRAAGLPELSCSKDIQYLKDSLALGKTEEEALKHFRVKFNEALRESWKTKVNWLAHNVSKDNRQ
Sequence (P27986 461-568 partner): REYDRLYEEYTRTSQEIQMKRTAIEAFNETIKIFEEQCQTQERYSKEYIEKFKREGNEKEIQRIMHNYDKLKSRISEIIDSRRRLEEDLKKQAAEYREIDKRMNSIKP
experiment.summary: TR-FRET Adapta assay, assay F
condition.set: read-out: Assay F PI3Kδ IC50
observation.type: IC50 (nM)

{"molecule": "Cc1noc(-c2nc(-c3cc(S(=O)(=O)N[C@H]4CC[C@H](O)CC4)ccc3C)cnc2N)n1 [Example 2]", "observation.type": "IC50", "result": 390}
{"molecule": "Cc1ncc(-c2nc(-c3cc(S(=O)(=O)NC4CCOCC4)ccc3C)cnc2N)s1 [Example 45.3]", "observation.type": "IC50", "result": 100}
{"molecule": "COC1(C)CN(S(=O)(=O)c2ccc(C)c(-c3cnc(N)c(-c4cn(C)nc4C)n3)c2)C1 [Example 102]", "observation.type": "IC50", "result": 900}
{"molecule": "Cc1ccc(S(=O)(=O)NC2CCSC2=O)cc1-c1cnc(N)c(-n2cncn2)n1 (stereo not shown) [Example 127.51]", "observation.type": "IC50", "result": 580}
{"molecule": "CCN1CCC[C@@H]1CNS(=O)(=O)c1ccc(C)c(-c2cnc(N)c(-c3ccnc(C)c3)n2)c1 [Example 129.25]", "observation.type": "IC50", "result": 380}
{"molecule": "Cc1cc(-c2nc(-c3cc(S(=O)(=O)NC4CCC(C)(O)CC4)ccc3C)cnc2N)ccn1 (stereo not shown) [Example 129.19]", "observation.type": "IC50", "result": 470}
{"molecule": "Cc1ccc(S(=O)(=O)NCC2(O)CCC2)cc1-c1cnc(N)c(-n2cncn2)n1 [Example 127.16]", "observation.type": "IC50", "result": 1100}
{"molecule": "Cc1ccc(S(=O)(=O)N[C@@H](C)CO)cc1-c1cnc(N)c(-n2cncn2)n1 [Example 127.41]", "observation.type": "IC50", "result": 6600}
{"molecule": "Cc1cc(-c2nc(-c3cc(S(=O)(=O)NC4CC(F)(F)C4)ccc3C)cnc2N)ccn1 [Example 129.2]", "observation.type": "IC50", "result": 1200}
{"molecule": "Cc1ccc(S(=O)(=O)NCCC(C)(C)O)cc1-c1cnc(N)c(-c2cc(C3CC3)no2)n1 [Example 78]", "observation.type": "IC50", "result": 180}
{"molecule": "Cc1nc(C)c(-c2nc(-c3cc(S(=O)(=O)NCC(C)(C)O)ccc3C)cnc2N)s1 [Example 46.1]", "observation.type": "IC50", "result": 2600}
{"molecule": "Cc1cc(-c2nc(-c3cc(S(=O)(=O)NC4CCNC(=O)C4)ccc3C)cnc2N)ccn1 (stereo not shown) [Example 134]", "observation.type": "IC50", "result": 350}
{"molecule": "Cc1ccc(S(=O)(=O)N2CCC(F)CC2)cc1-c1cnc(N)c(-n2cncn2)n1 [Example 127.34]", "observation.type": "IC50", "result": 3200}
